# System: RARa:RXR (NR concentration 270 nM, RXRa partner concentration 90 nM)
# METHOD SUMMARY: PBM binding z-score (relative to random genomic background probes); higher = stronger binding; sequences stand for … in GC…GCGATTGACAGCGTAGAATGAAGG
Please note: true applies when PBM binding z-score is 0.1 or greater, and false applies otherwise.

Some solved entries appear below for comparison.
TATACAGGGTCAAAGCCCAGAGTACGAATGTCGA    true
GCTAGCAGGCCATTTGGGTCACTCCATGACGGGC    true
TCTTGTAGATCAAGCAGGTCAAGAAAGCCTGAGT    true
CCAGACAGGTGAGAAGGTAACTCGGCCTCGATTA    false
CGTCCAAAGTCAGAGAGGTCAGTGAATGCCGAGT    true
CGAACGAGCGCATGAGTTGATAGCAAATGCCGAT    false

Would you kindly look at the next entry?
Data request: Assess whether reported PBM binding z-score for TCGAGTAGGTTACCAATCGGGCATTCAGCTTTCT sits at 0.1 or higher.
Data returned: false

From: the supplement of paper PMC6555819
